Assay type: in vivo, BALB/c mice
Assay Setup: mouse, in vivo, iv, Ex vivo organ biodistribution, Inflammation
Starred links: 1 amine or outer side, 2 acyl side, 3 side chain; linkers in the order of their positions; H or OH if unused. Non-standard residues stand in square brackets, D forms with d. Residues, ends and D or L forms follow the SMILES beside them. *: point of attachment. DOTA = O=C(O)CN1CCN(CC(=O)O)CCN(CC(=O)*)CCN(CC(=O)O)CC1; d(γGlu) = O=C(O)[C@@H](CCC(=O)[*:2])N[*:1]
Experimental Endpoint: tissue uptake at 1 h (%ID/g)
Give just the number in %ID/g; leave the unit off.

Problem: For the compound C[C@H](N)C(=O)N[C@H](CCC(=O)N[C@@H](CCCCNC(=O)CN1CCN(CC(=O)O)CCN(CC(=O)O)CCN(CC(=O)O)CC1)C(=O)O)C(=O)O [[^68Ga]Ga-DOTA-AeK, metal not drawn] (H-Ala-[d(γGlu)]-Lys(DOTA)-OH) , what tissue uptake at 1 h is on record?
Solution: 0.9

Hello, the source for this data is paper PMC11434960, in case you need it.
